- Test system: HCT116
- TEST_SUMMARY: cell viability (CellTiter-Glo) relative to plate median (fraction of plate median); higher = more viable cells
- CONDITION: 5 µM; treatment time 24 h; reporter: TCF4/Wnt
Each entry below carries its reported cell viability.
EXPERIMENTAL_ENDPOINT: cell viability

- O=C(/C=C/C=C/c1ccc2c(c1)OCO2)N1CCCCC1: 1.05
- NC1(C(=O)O)CCCC1: 1.02
- CC[C@H]1OC(=O)C[C@@H](O)[C@H](C)[C@@H](O[C@@H]2O[C@H](C)[C@@H](O)[C@H](N(C)C)[C@H]2O)[C@@H](CCN2C[C@H](C)C[C@H](C)C2)C[C@@H](C)C(=O)/C=C/C(C)=C/[C@@H]1CO[C@@H]1O[C@H](C)[C@@H](O)[C@@H](OC)[C@H]1OC: 1.1
- O=C1OCC(Cc2ccccc2)C1c1ccccc1 (centres undefined): 1.01
